# maps each entry to its T/C
System: L1210 leukemia ip in BDF1 mice, survival T/C
Experiment summary: NCI In Vivo Anticancer Drug Screen. Data for tumor model L1210 Leukemia (intraperitoneal) in B6D2F1 (BDF1) mice
Experimental parameters: endpoint: mean survival time; dose: 100.0 mg/kg/injection; schedule: Q01DX009 (ip); vehicle: saline; higher = longer survival
Toxic doses and inconclusive results are not listed.
Experimental endpoint: T/C

[
  {
    "Compound": "CCC(C(=O)O)c1ccccc1 (centres undefined)",
    "Result": "97 % of control"
  },
  {
    "Compound": "CSC1=NCCN1",
    "Result": "104 % of control"
  },
  {
    "Compound": "CC(=O)OC12C=CC(C(C)=C1)C1C(=O)C=CC(=O)C12 (centres undefined)",
    "Result": "98 % of control"
  },
  {
    "Compound": "COc1ccccc1C1CC(C(C)(C)C)CCC1OS(=O)(=O)c1ccc(C)cc1 (centres undefined)",
    "Result": "92 % of control"
  },
  {
    "Compound": "CSc1cc(C)c(OC(=O)Nc2cc(C)ccc2C)c(C)c1",
    "Result": "91 % of control"
  },
  {
    "Compound": "C/C(C(=O)O)=C(\\C)C(=O)O",
    "Result": "104 % of control"
  },
  {
    "Compound": "CCN1CC=CCC1",
    "Result": "100 % of control"
  },
  {
    "Compound": "c1ccc2cc3cc4cc5ccccc5cc4cc3cc2c1",
    "Result": "101 % of control"
  },
  {
    "Compound": "NCCc1cnc[nH]1",
    "Result": "106 % of control"
  },
  {
    "Compound": "CC(C)(C)CCN1C(=O)c2ccccc2C1=O",
    "Result": "100 % of control"
  },
  {
    "Compound": "CCOC(=O)CNC(=O)CNC(=O)CNC(=O)CCCCSc1ncnc2nc[nH]c12",
    "Result": "96 % of control"
  },
  {
    "Compound": "CN(C)CCCN1Cc2ccccc2Cc2ccccc21",
    "Result": "100 % of control"
  },
  {
    "Compound": "ClCc1ccccn1",
    "Result": "92 % of control"
  },
  {
    "Compound": "NNc1ccc(Cl)c(S(=O)(=O)O)c1",
    "Result": "100 % of control"
  }
]

Reference source for all entries: PubChem BioAssay AID248
